Recorded values, source patent US7868006B2.

Entries and their pIC50 values follow.
Target: human CXCR3 (N-delta 4) (Homo sapiens, UniProt P49682)
Construct: CD8 leader (N); Flag tag (N); expressed in transfected cells; host or cells: mouse pro-B Ba/F3 cells, stably transfected with pME18Sneo-hCXCR3 (N-delta 4); membrane preparation
Sequence (P49682 5-368 limits assumed): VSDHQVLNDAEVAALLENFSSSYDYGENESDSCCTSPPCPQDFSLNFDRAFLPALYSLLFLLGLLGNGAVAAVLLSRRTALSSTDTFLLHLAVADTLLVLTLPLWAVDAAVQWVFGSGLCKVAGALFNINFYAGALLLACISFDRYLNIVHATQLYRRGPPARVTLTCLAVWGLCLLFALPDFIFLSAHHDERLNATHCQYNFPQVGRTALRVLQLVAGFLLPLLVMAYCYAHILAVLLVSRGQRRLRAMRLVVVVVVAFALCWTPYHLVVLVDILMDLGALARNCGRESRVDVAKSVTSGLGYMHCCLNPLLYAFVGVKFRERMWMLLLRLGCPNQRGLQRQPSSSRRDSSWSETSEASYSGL
Assay: Human CXCR3 (N-delta 4) Scintillation Proximity Assay (SPA), [125I] IP-10 binding
Conditions: IC50 rating; Ba/F3-hCXCR3 (N-delta 4) membranes, 25 pM [125I] IP-10; read-out: IC50
pIC50: −log10 of the molar value.
EXPERIMENTAL READOUT: pIC50

molecule="CC[C@H]1CN(c2nc(N)c(-c3nnc(OC)o3)nc2Cl)CCN1C1CCN(C(=O)c2ccc(Cl)nc2N)CC1 [Compound 79]" experimental_readout=pIC50 reading="< 7.00"
molecule="CC[C@H]1CN(c2ncc(-c3nnc(N)o3)nc2C)CCN1C1CCN(C(=O)c2ccc(C(F)(F)F)cc2)CC1 [Compound 72]" experimental_readout=pIC50 reading="> 7.60"
molecule="CC[C@H]1CN(c2nc(N)c(-c3nnc(C(C)(C)O)o3)nc2Cl)CCN1C1CCN(Cc2ccc(Cl)cc2)CC1 [Compound 28]" experimental_readout=pIC50 reading="> 7.60"
molecule="CC[C@H]1CN(c2ncc(-c3nc[nH]n3)nc2C)CCN1C1CCN(C(=O)c2ccc(C(F)(F)F)nc2N)CC1 [Compound 147]" experimental_readout=pIC50 reading="7.00 to 7.60"

###

Each entry below carries its recorded IC50.
Target: human CXCR3 (N-delta 4) (Homo sapiens)
Construct: CD8 leader (N); Flag tag (N); expressed in transfected cells; host or cells: mouse pro-B Ba/F3 cells, stably transfected with pME18Sneo-hCXCR3 (N-delta 4); membrane preparation
Test: Human CXCR3 (N-delta 4) Scintillation Proximity Assay (SPA), [125I] IP-10 binding
Settings: IC50 rating; Ba/F3-hCXCR3 (N-delta 4) membranes, 25 pM [125I] IP-10; read-out: IC50
EXPERIMENTAL READOUT: IC50

chemical_smiles=CC[C@H]1CN(c2nc(N)c(-c3nnc(C(C)(C)O)o3)nc2Cl)CCN1C1CCN(C(=O)c2ccc(Cl)cc2)CC1 target_or_test_system="human CXCR3 (N-delta 4) (Homo sapiens)" experimental_readout=IC50 reading="25 to 100 nM"
chemical_smiles=CC[C@H]1CN(c2ncc(-c3nnc(C)o3)nc2C)CCN1C1CCN(C(=O)c2ccc(C#N)cc2)CC1 target_or_test_system="human CXCR3 (N-delta 4) (Homo sapiens)" experimental_readout=IC50 reading="< 25 nM"
chemical_smiles=CC[C@H]1CN(c2ncc(-c3nnc(C)o3)nc2C)CCN1C1CCN(C(=O)c2ccc(OC(F)(F)F)cc2)CC1 target_or_test_system="human CXCR3 (N-delta 4) (Homo sapiens)" experimental_readout=IC50 reading="< 25 nM"
chemical_smiles=CC[C@H]1CN(c2nc(N)c(-c3nnc(NCC(=O)OC)o3)nc2Cl)CCN1C1CCN(C(=O)c2ccc(Cl)nc2N)CC1 target_or_test_system="human CXCR3 (N-delta 4) (Homo sapiens)" experimental_readout=IC50 reading="< 25 nM"
chemical_smiles=CC[C@H]1CN(c2ncc(-c3nnc(C)[nH]3)nc2Cl)CCN1C1CCN(C(=O)c2ccc(Cl)cc2)CC1 target_or_test_system="human CXCR3 (N-delta 4) (Homo sapiens)" experimental_readout=IC50 reading="< 25 nM"
chemical_smiles=CC[C@H]1CN(c2ncc(-c3nc[nH]n3)nc2C)CCN1C1CCN(C(=O)c2cc(F)c(F)cc2Cl)CC1 target_or_test_system="human CXCR3 (N-delta 4) (Homo sapiens)" experimental_readout=IC50 reading="25 to 100 nM"
chemical_smiles=CC[C@H]1CN(c2nc(N)c(-c3nnc(C(F)(F)F)o3)nc2Cl)CCN1C1CCN(Cc2ccc(Cl)cc2)CC1 target_or_test_system="human CXCR3 (N-delta 4) (Homo sapiens)" experimental_readout=IC50 reading="< 25 nM"
chemical_smiles=CC[C@H]1CN(c2ncc(-c3nnc(C)[nH]3)nc2Cl)CCN1C1CCN(C(=O)c2ccc(Cl)nc2N)CC1 target_or_test_system="human CXCR3 (N-delta 4) (Homo sapiens)" experimental_readout=IC50 reading="< 25 nM"
chemical_smiles=CC[C@H]1CN(c2nc(N)c(-c3nnc(C)o3)nc2Cl)CCN1C1CCN(C(=O)c2ccc(Cl)cc2)CC1 target_or_test_system="human CXCR3 (N-delta 4) (Homo sapiens)" experimental_readout=IC50 reading="< 25 nM"
chemical_smiles=CC[C@H]1CN(c2ncc(-c3nc[nH]n3)nc2C)[C@H](C)CN1C1CCN(C(=O)c2ccc(Cl)c(F)c2)CC1 target_or_test_system="human CXCR3 (N-delta 4) (Homo sapiens)" experimental_readout=IC50 reading="< 25 nM"
chemical_smiles=CCNc1nnc(-c2cnc(N3CCN(C4CCN(C(=O)c5ccc(Cl)nc5N)CC4)[C@@H](CC)C3)c(C)n2)s1 target_or_test_system="human CXCR3 (N-delta 4) (Homo sapiens)" experimental_readout=IC50 reading="< 25 nM"
chemical_smiles=CC[C@H]1CN(c2nc(N)c(-c3nnc(N)o3)nc2Cl)CCN1C1CCN(C(=O)c2ccc(Cl)cc2)CC1 target_or_test_system="human CXCR3 (N-delta 4) (Homo sapiens)" experimental_readout=IC50 reading="< 25 nM"
chemical_smiles=CCNc1nnc(-c2cnc(N3CCN(C4CCN(Cc5ccc(C)c(F)c5)CC4)[C@@H](CC)C3)c(C)n2)o1 target_or_test_system="human CXCR3 (N-delta 4) (Homo sapiens)" experimental_readout=IC50 reading="< 25 nM"
chemical_smiles=CC[C@H]1CN(c2nc(N)c(-c3nnc(NCC(=O)NC4CC4)o3)nc2C)CCN1C1CCN(C(=O)c2ccc(Cl)nc2N)CC1 target_or_test_system="human CXCR3 (N-delta 4) (Homo sapiens)" experimental_readout=IC50 reading="< 25 nM"
chemical_smiles=CC[C@H]1CN(c2nc(N)c(-c3nnc(C)o3)nc2Cl)CCN1C1CCN([C@H](CO)c2ccc(Cl)cc2)CC1 target_or_test_system="human CXCR3 (N-delta 4) (Homo sapiens)" experimental_readout=IC50 reading="< 25 nM"
chemical_smiles=CC[C@H]1CN(c2nc(N)c(-c3nnc(NCC(N)=O)o3)nc2Cl)CCN1C1CCN(C(=O)c2ccc(Cl)nc2N)CC1 target_or_test_system="human CXCR3 (N-delta 4) (Homo sapiens)" experimental_readout=IC50 reading="25 to 100 nM"
chemical_smiles=CC[C@H]1CN(c2ncc(C3=NCCN3)nc2C)[C@H](C)CN1C1CCN(Cc2ccc(OC(F)(F)F)cc2)CC1 target_or_test_system="human CXCR3 (N-delta 4) (Homo sapiens)" experimental_readout=IC50 reading="< 25 nM"
chemical_smiles=CC[C@H]1CN(c2ncc(-c3nc[nH]n3)nc2C)[C@H](C)CN1C1CCN(C(=O)c2ccc(F)c(F)c2)CC1 target_or_test_system="human CXCR3 (N-delta 4) (Homo sapiens)" experimental_readout=IC50 reading="25 to 100 nM"
chemical_smiles=CC[C@H]1CN(c2nc(N)c(-c3nnco3)nc2Cl)CCN1C1CCN(Cc2ccc(Cl)cc2)CC1 target_or_test_system="human CXCR3 (N-delta 4) (Homo sapiens)" experimental_readout=IC50 reading="< 25 nM"
chemical_smiles=CC[C@H]1CN(c2nc(N)c(-c3nnc(N)[nH]3)nc2Cl)CCN1C1CCN(C(=O)c2ccc(Cl)nc2N)CC1 target_or_test_system="human CXCR3 (N-delta 4) (Homo sapiens)" experimental_readout=IC50 reading="< 25 nM"
chemical_smiles=CCNc1nnc(-c2cnc(N3C[C@H](CC)N(C4CCN(Cc5ccc(F)cc5)CC4)C[C@H]3C)c(C)n2)o1 target_or_test_system="human CXCR3 (N-delta 4) (Homo sapiens)" experimental_readout=IC50 reading="< 25 nM"
chemical_smiles=CCNc1nnc(-c2cnc(N3CCN(C4CCN(C(=O)c5ccc(Cl)cc5C)CC4)[C@@H](CC)C3)c(C)n2)o1 target_or_test_system="human CXCR3 (N-delta 4) (Homo sapiens)" experimental_readout=IC50 reading="< 25 nM"
chemical_smiles=CC[C@H]1CN(c2ncc(-c3nc[nH]n3)nc2C)CCN1C1CCN(C(=O)c2ccc(Cl)c(F)c2)CC1 target_or_test_system="human CXCR3 (N-delta 4) (Homo sapiens)" experimental_readout=IC50 reading="< 25 nM"
chemical_smiles=CC[C@H]1CN(c2nc(N)c(-c3nnc(CO)o3)nc2Cl)CCN1C1CCN([C@H](C(=O)OC)c2ccc(Cl)cc2)CC1 target_or_test_system="human CXCR3 (N-delta 4) (Homo sapiens)" experimental_readout=IC50 reading="> 100 nM"
chemical_smiles=CCNc1nnc(-c2cnc(N3CCN(C4CCN([C@@H](CO)c5ccc(Cl)cc5)CC4)[C@@H](CC)C3)c(C)n2)o1 target_or_test_system="human CXCR3 (N-delta 4) (Homo sapiens)" experimental_readout=IC50 reading="< 25 nM"
chemical_smiles=CC[C@H]1CN(c2ncc(-c3ncc[nH]3)nc2C)CCN1C1CCN(Cc2ccc(F)cc2)CC1 target_or_test_system="human CXCR3 (N-delta 4) (Homo sapiens)" experimental_readout=IC50 reading="< 25 nM"
chemical_smiles=CC[C@H]1CN(c2ncc(-c3nnc(N)[nH]3)nc2C)CCN1C1CCN(C(=O)c2ccc(Cl)cc2)CC1 target_or_test_system="human CXCR3 (N-delta 4) (Homo sapiens)" experimental_readout=IC50 reading="< 25 nM"
chemical_smiles=CC[C@H]1CN(c2nc(N)c(-c3nnc(C)o3)nc2Cl)CCN1C1CCN(C(=O)c2ccc(Cl)nc2N)CC1 target_or_test_system="human CXCR3 (N-delta 4) (Homo sapiens)" experimental_readout=IC50 reading="< 25 nM"
